- Tgt: His6-JNK1α1 (UniProt P45983-2 1-384)
- Assay Notes: fluorescence polarisation
TMR = 6-carboxytetramethylrhodamine
Reported Property: pKd
Keep it numeric: pKd is minus log10 of the concentration in mol/L.

**Q:** Input {TMR}-RPKRPTTLNLF-OH [TMR-JIPtide] , output reported pKd.
**A:** 6.36
